# tested_target: human PHD2 (Homo sapiens (Human), UniProt Q9GZT9)
# Sequence (Q9GZT9 whole entry): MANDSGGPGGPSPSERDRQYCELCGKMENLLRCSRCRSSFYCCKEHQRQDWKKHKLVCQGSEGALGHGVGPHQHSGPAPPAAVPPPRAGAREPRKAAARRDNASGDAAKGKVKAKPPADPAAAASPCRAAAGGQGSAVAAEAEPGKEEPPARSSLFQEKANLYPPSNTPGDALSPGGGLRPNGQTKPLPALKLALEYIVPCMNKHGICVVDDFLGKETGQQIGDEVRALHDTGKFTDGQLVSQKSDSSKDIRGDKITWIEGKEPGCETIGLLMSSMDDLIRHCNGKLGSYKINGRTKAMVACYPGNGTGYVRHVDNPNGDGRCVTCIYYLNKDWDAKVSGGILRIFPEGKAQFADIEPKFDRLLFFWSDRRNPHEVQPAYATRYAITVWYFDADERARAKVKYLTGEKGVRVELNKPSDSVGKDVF
# run_description: Test 2: human PHD2 inhibitory activity, fluorescence polarization assay of HIF-1α peptide proline hydroxylation
# Type: biochemical
# condition_set: test compound's concentration 1 μM; Test 2, fluorescence polarization assay; read-out: Percent inhibition (% at 1 μM)
Would you kindly list inhibition at 1 µM for each of these compounds?
Expressed in %, but write only the number.

The compound identified as "CC1(C)CC(O)=C(C(=O)NCC(=O)O)C(=O)N1CC(=O)NCc1ccc(C(F)(F)F)cc1" registered its inhibition at 1 µM at 6

The compound identified as "COc1ccc(CN2CCC(O)=C(C(=O)NCC(=O)O)C2=O)c(OC)c1" registered its inhibition at 1 µM at 67

The compound identified as "O=C(O)CNC(=O)C1=C(O)CCN(C[C@H]2CC[C@@H](Oc3ccc(F)cc3)CC2)C1=O" registered its inhibition at 1 µM at 85

The compound identified as "O=C(O)CNC(=O)C1=C(O)CCN(Cc2ccc(Br)cc2F)C1=O" registered its inhibition at 1 µM at 83

The compound identified as "CC1(C)CC(O)=C(C(=O)NCC(=O)O)C(=O)N1Cc1ccc(-c2ccccn2)cc1" registered its inhibition at 1 µM at 77

The compound identified as "CC1(C)C(O)=C(C(=O)NCC(=O)O)C(=O)N(Cc2ccc(C(F)(F)F)cc2)C1(C)C" registered its inhibition at 1 µM at 56

The compound identified as "O=C(O)CNC(=O)C1=C(O)CCN(C[C@H]2CC[C@H](OCC3CCCC3)CC2)C1=O" registered its inhibition at 1 µM at 92

The compound identified as "O=C(O)CNC(=O)C1=C(O)CC2(CCOCC2)N(Cc2ccc(OCC3CC3)cc2)C1=O" registered its inhibition at 1 µM at 81

* * *

Would you kindly list inhibition at 1 µM for each of these compounds?
# tested_target: human PHD2 (Homo sapiens (Human), UniProt Q9GZT9)
# run_description: Test 1: human PHD2 inhibitory activity, [14C]-2-oxoglutarate to [14C]-succinic acid radiometric assay with HIF-1α peptide
# Format: biochemical
# condition_set: test compound's concentration 1 μM; Test 1, [14C]-2-oxoglutarate radiometric assay; read-out: Percent inhibition (% at 1 μM)
Expressed in %, but write only the number.

The compound identified as CC1(C)CC(O)=C(C(=O)NCC(=O)O)C(=O)N1Cc1ccc(OCC2CC2)c(F)c1 [Ex. 1-204] registered its inhibition at 1 µM at 69

The compound identified as O=C(O)CNC(=O)C1=C(O)CCN(Cc2ccc(Oc3cccc(F)c3)cc2)C1=O [Ex. 1-258] registered its inhibition at 1 µM at 94

The compound identified as CC1(C)CN(Cc2ccc(C(F)(F)F)cc2)C(=O)C(C(=O)NCC(=O)O)=C1O [Ex. 1-174] registered its inhibition at 1 µM at 59

The compound identified as CC(C)c1cccc(-c2ccc(CN3CCC(O)=C(C(=O)NCC(=O)O)C3=O)cc2)c1 [Ex. 2-9] registered its inhibition at 1 µM at 78

* * *

# tested_target: human PHD2 (Homo sapiens (Human))
# run_description: Test 1: human PHD2 inhibitory activity, [14C]-2-oxoglutarate to [14C]-succinic acid radiometric assay with HIF-1α peptide
# Format: biochemical
# condition_set: test compound's concentration 1 μM; Test 1, [14C]-2-oxoglutarate radiometric assay; read-out: Percent inhibition (% at 1 μM)
Would you kindly list inhibition at 1 µM for each of these compounds?
Expressed in %, but write only the number.

Item: "COc1ccc(CN2C(=O)C(C(=O)NCC(=O)O)=C(O)CC2(C)C)c(F)c1" | System: human PHD2 (Homo sapiens (Human)) | inhibition at 1 µM: 67

Item: "COc1cccc(CN2CCC(O)=C(C(=O)NCC(=O)O)C2=O)c1" | System: human PHD2 (Homo sapiens (Human)) | inhibition at 1 µM: 58

Item: "O=C(O)CNC(=O)C1=C(O)C2(CCCCC2)CN(Cc2ccccc2)C1=O" | System: human PHD2 (Homo sapiens (Human)) | inhibition at 1 µM: 50

Item: "Cc1cccc(-c2ccc(CN3CCC(O)=C(C(=O)NCC(=O)O)C3=O)cc2)c1" | System: human PHD2 (Homo sapiens (Human)) | inhibition at 1 µM: 92

Item: "O=C(O)CNC(=O)C1=C(O)CCN(Cc2ccc(Oc3ccc(F)cn3)cc2)C1=O" | System: human PHD2 (Homo sapiens (Human)) | inhibition at 1 µM: 90

* * *

# tested_target: human PHD2 (Homo sapiens (Human))
# run_description: Test 2: human PHD2 inhibitory activity, fluorescence polarization assay of HIF-1α peptide proline hydroxylation
# Format: biochemical
# condition_set: test compound's concentration 1 μM; Test 2, fluorescence polarization assay; read-out: Percent inhibition (% at 1 μM)
Would you kindly list inhibition at 1 µM for each of these compounds?
Expressed in %, but write only the number.

The compound identified as O=C(O)CNC(=O)C1=C(O)CCN(Cc2ccc(Oc3ccc(C4CC4)cc3)nc2)C1=O [Ex. 1-296] registered its inhibition at 1 µM at 102

The compound identified as O=C(O)CNC(=O)C1=C(O)CC2(CNC2)N(Cc2ccc(-c3ccccc3)cc2)C1=O [Ex. 1-313] registered its inhibition at 1 µM at 96

The compound identified as O=C(O)CNC(=O)C1=C(O)CC(C(F)(F)F)N(Cc2ccc(-c3ccccc3)cc2)C1=O (stereo not shown) [Ex. 1-81] registered its inhibition at 1 µM at 64

The compound identified as O=C(O)CNC(=O)C1=C(O)CCN(C2(c3ccc(-c4ccccc4)cc3)CC2)C1=O [Ex. 1-219] registered its inhibition at 1 µM at 88

* * *

Would you kindly list inhibition at 1 µM for each of these compounds?
# tested_target: human PHD2 (Homo sapiens (Human), UniProt Q9GZT9)
# run_description: Test 1: human PHD2 inhibitory activity, [14C]-2-oxoglutarate to [14C]-succinic acid radiometric assay with HIF-1α peptide
# Format: biochemical
# condition_set: test compound's concentration 1 μM; Test 1, [14C]-2-oxoglutarate radiometric assay; read-out: Percent inhibition (% at 1 μM)
Expressed in %, but write only the number.

The compound identified as O=C(O)CNC(=O)C1=C(O)CCN(Cc2ccc3c(c2)OC(F)(F)O3)C1=O [Ex. 1-152] registered its inhibition at 1 µM at 82

The compound identified as CC1(C)CC(O)=C(C(=O)NCC(=O)O)C(=O)N1Cc1ccc(OCCC2CC2)cc1 [Ex. 1-247] registered its inhibition at 1 µM at 81

The compound identified as O=C(O)CNC(=O)C1=C(O)CCN(CC2CCC(c3ccccc3)CC2)C1=O (centres unmarked) [Ex. 1-26] registered its inhibition at 1 µM at 90

The compound identified as CC1(C)CC(O)=C(C(=O)NCC(=O)O)C(=O)N1Cc1cnc(-c2ccccc2)[nH]1 [Ex. 1-293] registered its inhibition at 1 µM at 35

The compound identified as CC1CN(Cc2cnc(-c3ccccc3)s2)C(=O)C(C(=O)NCC(=O)O)=C1O (centres unmarked) [Ex. 1-104] registered its inhibition at 1 µM at 87

The compound identified as CN(C)S(=O)(=O)c1ccc(-c2ccc(CN3CCC(O)=C(C(=O)NCC(=O)O)C3=O)cc2)cc1 [Ex. 2-15] registered its inhibition at 1 µM at 97

The compound identified as O=C(O)CNC(=O)C1=C(O)CCN(Cc2ccc(Br)cc2)C1=O [Ex. 1-23] registered its inhibition at 1 µM at 84

The compound identified as CC1(C)CC(O)=C(C(=O)NCC(=O)O)C(=O)N1Cc1ccc(OCC(F)(F)F)cc1 [Ex. 1-221] registered its inhibition at 1 µM at 66

The compound identified as O=C(O)CNC(=O)C1=C(O)CC2(CCCCC2)N(Cc2ccc(C(F)(F)F)cn2)C1=O [Ex. 1-142] registered its inhibition at 1 µM at 54

The compound identified as O=C(O)CNC(=O)C1=C(O)CCN(Cc2ccc(-c3ccc(F)cc3)cc2F)C1=O [Ex. 1-126] registered its inhibition at 1 µM at 97

The compound identified as O=C(O)CNC(=O)C1=C(O)CC2(CCOCC2)N(Cc2cnc(-c3ccccc3)s2)C1=O [Ex. 1-98] registered its inhibition at 1 µM at 88

The compound identified as O=C(O)CNC(=O)C1=C(O)CCN(c2ccc(Oc3ccccc3)cc2)C1=O [Ex. 1-40] registered its inhibition at 1 µM at 79

The compound identified as CC(C)(C)c1ccc(CN2CCC(O)=C(C(=O)NCC(=O)O)C2=O)cc1 [Ex. 1-55] registered its inhibition at 1 µM at 75

The compound identified as O=C(O)CNC(=O)C1=C(O)CC2(CCCCC2)N(Cc2ccccc2)C1=O [Ex. 1-253] registered its inhibition at 1 µM at 45

The compound identified as O=C(O)CNC(=O)C1=C(O)C2(CCC2)CN(CC2CCC(c3ccccc3)CC2)C1=O (centres unmarked) [Ex. 1-114] registered its inhibition at 1 µM at 36

The compound identified as CCc1ccc(CN2CCC(O)=C(C(=O)NCC(=O)O)C2=O)cc1 [Ex. 1-53] registered its inhibition at 1 µM at 78

The compound identified as O=C(O)CNC(=O)C1=C(O)CCN(Cc2cc(-c3ccccc3)no2)C1=O [Ex. 1-45] registered its inhibition at 1 µM at 82

FYI, the data here is from patent US9422240B2.
